assayed.target: RON (Homo sapiens, UniProt Q04912)
Sequence (Q04912 913-1400): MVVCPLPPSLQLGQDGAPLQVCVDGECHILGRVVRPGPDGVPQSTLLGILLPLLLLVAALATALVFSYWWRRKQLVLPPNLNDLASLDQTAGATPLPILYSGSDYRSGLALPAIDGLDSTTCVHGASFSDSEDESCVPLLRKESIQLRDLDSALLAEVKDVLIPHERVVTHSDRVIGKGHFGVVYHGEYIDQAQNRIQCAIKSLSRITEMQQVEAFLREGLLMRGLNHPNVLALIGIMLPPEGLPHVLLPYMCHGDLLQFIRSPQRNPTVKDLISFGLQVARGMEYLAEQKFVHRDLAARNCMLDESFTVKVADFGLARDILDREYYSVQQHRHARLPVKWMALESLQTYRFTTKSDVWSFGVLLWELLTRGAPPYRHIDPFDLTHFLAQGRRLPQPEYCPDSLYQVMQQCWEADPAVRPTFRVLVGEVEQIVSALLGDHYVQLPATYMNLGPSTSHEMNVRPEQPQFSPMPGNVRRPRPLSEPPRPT
experiment.description: sfRON cell mechanistic assay (HeLa), phosphorylated RON ELISA
details: HeLa cells transfected with sfRON; inhibition of phosphorylated RON; four hours incubation; at least duplicate experiments; read-out: sfRON mech IC50
pIC50: −log10 of the molar value.
measurement.label: pIC50

The following molecules have reported results that may help.
molecule	pIC50
COc1ccc(F)c(Cl)c1[C@@H](C)c1c[nH]c2ncc(-c3cn([C@@H]4C[C@@H](O)[C@@H](O)C4)nc3C)cc12	≥ 6.70
[2H]C([2H])([2H])[C@H](c1c(OC)ccc(F)c1Cl)c1c[nH]c2ncc(-c3cnn([C@H]4CC[C@H](O)CC4)c3C)cc12	6.00 to 6.70
COc1ccc(F)c(Cl)c1[C@@H](C)c1c[nH]c2ncc(-c3cn(CC(C)(C)O)nc3C)cc12	6.00 to 6.70
C[C@H](c1c(OC(F)F)ccc(F)c1Cl)c1c[nH]c2ncc(-c3cnc(N4CCC(O)CC4)n3C)cc12	≥ 6.70

# pIC50 (molecule: COc1ccc(F)c(Cl)c1[C@@H](CF)c1c[nH]c2ncc(-c3cnn([C@H]4CC[C@H](O)CC4)c3C)cc12 ) is 6.00 to 6.70

Value of measured pIC50 for the entry CCc1c(-c2cnc3[nH]cc([C@H](C)c4c(OC(F)F)ccc(F)c4Cl)c3c2)cnn1CC(C)(C)O : 6.00 to 6.70

The reported value for N#CC(c1c(Cl)ccc(F)c1Cl)c1c[nH]c2ncc(-c3cnn([C@H]4CC[C@H](O)CC4)c3F)cc12 (stereo partly drawn) in terms of pIC50 is 6.00 to 6.70

The measured pIC50 associated with [2H]C([2H])([2H])[C@H](c1c(OC(F)F)ccc(F)c1Cl)c1c[nH]c2ncc(-c3cnn([C@H]4CC[C@H](O)CC4)c3C)cc12 reads ≥ 6.70

Field pIC50 (entry Cc1nn(C[C@@H](O)CO)c(C)c1-c1cnc2[nH]cc([C@H](C)c3c(Cl)ccc(F)c3Cl)c2c1 ) reads 6.00 to 6.70

response.value for COc1ccc(F)c(Cl)c1[C@@H](C)c1c[nH]c2ncc(-c3cnn(C[C@H](O)CO)c3C)cc12 (field: pIC50) = ≥ 6.70

# molecule Cc1c(-c2cnc3[nH]cc([C@H](C)c4c(OC(F)F)ccc(F)c4Cl)c3c2)cnn1[C@H]1CC[C@@H](N2CCC[C@H]2C(=O)O)CC1 ; its pIC50 = < 6.00

COc1ccc(F)c(Cl)c1[C@@H](C)c1c[nH]c2ncc(-c3cn(C)nc3C#N)cc12 yielded pIC50 of < 6.00

The recorded pIC50 for COc1ccc(F)c(Cl)c1[C@@H](C)c1c[nH]c2ncc(-c3c(C)nn(C)c3C(N)=O)cc12 is < 6.00

The reported pIC50 of the molecule Cc1c(-c2cnc3[nH]cc([C@H](C)c4c(Cl)ccc(F)c4Cl)c3c2)cnn1[C@H]1CC[C@H](O)CC1 was 6.00 to 6.70

Value of measured pIC50 for the entry COc1ccc(F)c(Cl)c1[C@@H](C)c1c[nH]c2ncc(-c3cnn([C@H]4CC[C@H](O)CC4)c3C)cc12 : 6.00 to 6.70

Given item COc1ccc(F)c(Cl)c1[C@@H](C)c1c[nH]c2ncc(-c3cn([C@H]4CC[C@H](C(=O)N(C)C)CC4)nc3C)cc12 , the value recorded as its pIC50 is ≥ 6.70

Kindly note the recorded pIC50 for COc1ccc(F)c(Cl)c1[C@@H](C)c1c[nH]c2ncc(-c3cn(C)nc3C(N)=O)cc12 , which is < 6.00

pIC50 reading for Cc1c(-c2cnc3[nH]cc([C@H](CF)c4c(Cl)ccc(F)c4Cl)c3c2)cnn1[C@H]1CC[C@H](O)CC1 : 6.00 to 6.70

Kindly note the recorded pIC50 for COc1ccc(F)c(Cl)c1[C@@H](C)c1c[nH]c2ncc(-c3cn(C)nc3OC)cc12 , which is 6.00 to 6.70

Per the records, this molecule ( Cc1c(-c2cnc3[nH]cc(C(C#N)c4c(Cl)ccc(F)c4Cl)c3c2)cnn1[C@H]1CC[C@H](O)CC1 (stereo partly drawn) ) has pIC50 equal to < 6.00

// recorded pIC50 for CNC(=O)[C@H]1CC[C@H](n2cc(-c3cnc4[nH]cc([C@H](C)c5c(OC)ccc(F)c5Cl)c4c3)c(C)n2)CC1 : ≥ 6.70

The molecule listed as COc1ccc(F)c(Cl)c1[C@@H](C)c1c[nH]c2ncc(-c3cnn([C@H]4CC[C@H](O)CC4)c3Cl)cc12 shows pIC50 equal to < 6.00

Reported pIC50 of COc1ccc(F)c(Cl)c1[C@@H](C)c1c[nH]c2ncc(-c3cnn([C@H]4CC[C@@H](O)CC4)c3C)cc12 : 6.00 to 6.70

// sample Cc1c(-c2cnc3[nH]cc([C@H](C)c4c(OC(F)F)ccc(F)c4Cl)c3c2)cnn1[C@H]1CC[C@H](N(C)CC(=O)O)CC1 , its pIC50 was < 6.00

In plain terms, COc1ccc(F)c(Cl)c1[C@@H](C)c1c[nH]c2ncc(-c3c(C)nn(CC(C)(C)O)c3C)cc12 has a documented pIC50 of < 6.00

Per the records, this molecule ( CCc1nn(CC(C)(C)O)cc1-c1cnc2[nH]cc([C@H](C)c3c(OC)ccc(F)c3Cl)c2c1 ) has pIC50 equal to 6.00 to 6.70

Form field pIC50, entry C[C@H](c1c(OC(F)F)ccc(F)c1Cl)c1c[nH]c2ncc(-c3cnn([C@H]4CC[C@H](O)CC4)c3CO)cc12 : 6.00 to 6.70
